Molecular target: NK2 (Homo sapiens, UniProt P21452)
Sequence (P21452 1-398): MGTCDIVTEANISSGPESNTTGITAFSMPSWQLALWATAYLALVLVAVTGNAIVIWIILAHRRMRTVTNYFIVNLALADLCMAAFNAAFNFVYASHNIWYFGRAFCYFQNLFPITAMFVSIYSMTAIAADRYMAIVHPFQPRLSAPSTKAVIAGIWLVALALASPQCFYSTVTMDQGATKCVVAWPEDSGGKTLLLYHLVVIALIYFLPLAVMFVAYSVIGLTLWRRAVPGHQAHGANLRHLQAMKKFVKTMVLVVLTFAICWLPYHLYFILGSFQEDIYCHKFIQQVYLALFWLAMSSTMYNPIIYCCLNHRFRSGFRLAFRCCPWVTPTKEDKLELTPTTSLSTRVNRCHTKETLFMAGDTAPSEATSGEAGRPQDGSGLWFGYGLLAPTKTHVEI
Assay: Signal transduction (ST), intracellular Ca++ (FLIPR), NK2
Format: cell-based
Conditions: read-out: pIC50 NK2 (converted)
Assign IC50 to each entry below.
Report the value in nM with no unit label.

For O=C(C1CCCCC1)N1CCC(N2CCN([C@H]3CCN(C(=O)c4cc(C(F)(F)F)cc(C(F)(F)F)c4)[C@H](Cc4ccccc4)C3)CC2)C1 (some centres unmarked) on NK2 (Homo sapiens, UniProt P21452), measured IC50 was 2000

Form field, IC50 with NK2 (Homo sapiens, UniProt P21452), item O=C(C1CC1)N1CCC(N2CCN([C@H]3CCN(C(=O)c4cc(C(F)(F)F)cc(C(F)(F)F)c4)[C@H](Cc4ccc(Cl)c(Cl)c4)C3)CC2)C1 (relative stereo) : 1000

Item O=C(c1ccsc1)N1CCC(N2CCN(C3CCN(C(=O)c4cc(C(F)(F)F)cc(C(F)(F)F)c4)C(Cc4cc(F)cc(F)c4)C3)CC2)C1 (centres unmarked) was tested on NK2 (Homo sapiens, UniProt P21452); the reported IC50 is 3160

Bench note, NK2 (Homo sapiens, UniProt P21452): entry O=C(c1ccccc1Cl)N1CCC(N2CCN(C3CCN(C(=O)c4cc(C(F)(F)F)cc(C(F)(F)F)c4)C(Cc4ccc(F)c(F)c4)C3)CC2)C1 (single isomer, unassigned) [Compound 211] , its IC50 = 1000

CC(C)NC(=O)N1CCC(N2CCN([C@H]3CCN(C(=O)c4cc(C(F)(F)F)cc(C(F)(F)F)c4)[C@H](Cc4ccccc4)C3)CC2)C1 (some centres unmarked) tested on NK2 (Homo sapiens, UniProt P21452) gave IC50: 6310

----------
target: UniProt P25103; assay: Signal transduction (ST), intracellular Ca++ (FLIPR), NK1 antagonistic activity; assay type: cell-based; settings: read-out: pIC50 NK1 (converted)
Sequence (P25103 whole entry): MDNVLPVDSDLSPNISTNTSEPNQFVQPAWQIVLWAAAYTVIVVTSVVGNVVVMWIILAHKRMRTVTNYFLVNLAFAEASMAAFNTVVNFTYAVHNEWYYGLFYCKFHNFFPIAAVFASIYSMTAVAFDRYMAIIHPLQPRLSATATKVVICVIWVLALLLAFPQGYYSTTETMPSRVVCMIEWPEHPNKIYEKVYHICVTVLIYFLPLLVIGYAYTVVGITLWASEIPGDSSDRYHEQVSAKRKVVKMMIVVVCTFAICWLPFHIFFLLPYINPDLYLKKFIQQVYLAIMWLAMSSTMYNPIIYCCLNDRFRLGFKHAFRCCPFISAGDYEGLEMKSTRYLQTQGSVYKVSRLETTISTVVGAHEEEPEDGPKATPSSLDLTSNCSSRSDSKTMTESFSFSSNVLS
Exercise: state measured IC50 for each of the compounds provided.
Just the number in nM, nothing appended.

For reference, reported IC50 for COc1ccc(C(O)C(=O)N2CCC(N3CCN([C@H]4CCN(C(=O)c5cc(C(F)(F)F)cc(C(F)(F)F)c5)[C@H](Cc5ccccc5)C4)CC3)C2)cc1 (stereo partly drawn) stands at 20

IC50 reading for O=C(c1cc(C(F)(F)F)cc(C(F)(F)F)c1)N1CC[C@H](N2CCN(C3CCN(C(CO)c4cccs4)C3)CC2)C[C@H]1Cc1ccccc1 (stereo partly drawn) : 31.6

The value of IC50 measured for the compound O=C(C1CCCCN1C(=O)C1CC1)N1CCC(N2CCN([C@H]3CCN(C(=O)c4cc(C(F)(F)F)cc(C(F)(F)F)c4)[C@H](Cc4ccccc4)C3)CC2)C1 (stereo partly drawn) turned out to be 6.31

The reported IC50 of the compound `CC(C)(C)OC(=O)N1CC[C@@H](N2CCN([C@H]3CCN(C(=O)c4cc(C(F)(F)F)cc(C(F)(F)F)c4)[C@H](Cc4ccc(Cl)c(Cl)c4)C3)CC2)C1` was 31.6

Record summary for CC(C)Oc1cccc(C(=O)N2CCC(N3CCN([C@H]4CCN(C(=O)c5cc(C(F)(F)F)cc(C(F)(F)F)c5)[C@H](Cc5ccccc5)C4)CC3)C2)c1 (stereo partly drawn) : reported IC50 = 31.6

Form: compound = `O=C(c1c(Cl)cccc1Cl)N1CC[C@@H](N2CCN([C@H]3CCN(C(=O)c4cc(C(F)(F)F)cc(C(F)(F)F)c4)[C@H](Cc4ccc(Cl)c(Cl)c4)C3)CC2)C1` ; IC50 = 20

----------
Hi there, I'd appreciate the recorded IC50 for every entry that follows.
target: NK2 (Homo sapiens); test: Signal transduction (ST), intracellular Ca++ (FLIPR), NK2; format: cell-based; conditions: read-out: pIC50 NK2 (converted)
Please reply with the bare figure in µM and do not write the unit itself.

What the record says about O=C(C(O)c1ccccc1Cl)N1CCC(N2CCN([C@H]3CCN(C(=O)c4cc(C(F)(F)F)cc(C(F)(F)F)c4)[C@H](Cc4ccccc4)C3)CC2)C1 (some centres unmarked) : IC50 is 5.01

Input CC1(C)OC(=O)C[C@H]1C(=O)N1CCC(N2CCN([C@H]3CCN(C(=O)c4cc(C(F)(F)F)cc(C(F)(F)F)c4)[C@H](Cc4ccccc4)C3)CC2)C1 (some centres unmarked) . Output IC50: 5.01

// sample O=C(c1ccoc1)N1CCC(N2CCN(C3CCN(C(=O)c4cc(C(F)(F)F)cc(C(F)(F)F)c4)C(Cc4ccccc4)C3)CC2)C1 (single isomer, unassigned) [Compound 33] , its IC50 was 3.98

Entry O=C(c1cn[nH]c1)N1CCC(N2CCN([C@H]3CCN(C(=O)c4cc(C(F)(F)F)cc(C(F)(F)F)c4)[C@H](Cc4ccccc4)C3)CC2)C1 (some centres unmarked) — recorded IC50 = 5.01

Query O=C(c1c(Cl)cccc1Cl)N1CCC(N2CCN(C3CCN(C(=O)c4cc(C(F)(F)F)cc(C(F)(F)F)c4)C(Cc4ccc(F)c(F)c4)C3)CC2)C1 (centres unmarked) [Compound 256] yields IC50 of 1.58

----------
molecular target: NK3 (Homo sapiens, UniProt P29371); assay: Signal transduction (ST), intracellular Ca++ (FLIPR), NK3; type: cell-based; details: read-out: pIC50 NK3 (converted)
Sequence (P29371 whole entry): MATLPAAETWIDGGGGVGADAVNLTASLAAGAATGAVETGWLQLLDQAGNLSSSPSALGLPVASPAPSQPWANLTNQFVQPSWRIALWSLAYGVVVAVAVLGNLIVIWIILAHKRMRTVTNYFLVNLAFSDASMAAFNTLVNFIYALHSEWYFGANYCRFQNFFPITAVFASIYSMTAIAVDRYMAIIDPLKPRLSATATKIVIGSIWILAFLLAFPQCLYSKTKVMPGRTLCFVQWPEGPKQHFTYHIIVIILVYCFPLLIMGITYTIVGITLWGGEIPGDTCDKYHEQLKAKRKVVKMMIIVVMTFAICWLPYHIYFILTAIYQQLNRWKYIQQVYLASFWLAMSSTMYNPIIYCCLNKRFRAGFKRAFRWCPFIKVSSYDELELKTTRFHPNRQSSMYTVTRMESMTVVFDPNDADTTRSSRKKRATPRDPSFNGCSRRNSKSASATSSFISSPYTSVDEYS
result type: log10 of IC50 (log10 of the value in nM)
All values: base-10 log of IC50 in nM.

So the reported log10 of IC50 for O=C(Nc1ccccc1F)N1CCC(N2CCN([C@H]3CCN(C(=O)c4cc(C(F)(F)F)cc(C(F)(F)F)c4)[C@H](Cc4ccccc4)C3)CC2)C1 (stereo partly shown) [Compound 284] , on NK3 (Homo sapiens, UniProt P29371), turned out to be 3.60

log10 of IC50 value, target or system NK3 (Homo sapiens, UniProt P29371), for CC(=O)N1CCCC1C(=O)N1CCC(N2CCN([C@H]3CCN(C(=O)c4cc(C(F)(F)F)cc(C(F)(F)F)c4)[C@H](Cc4ccccc4)C3)CC2)C1 (stereo partly shown) [Compound 187] : 3.70

Form field, log10 of IC50 with NK3 (Homo sapiens, UniProt P29371), item O=C(c1cc2ccccc2o1)N1CCC(N2CCN([C@H]3CCN(C(=O)c4cc(C(F)(F)F)cc(C(F)(F)F)c4)[C@H](Cc4ccccc4)C3)CC2)C1 (stereo partly shown) [Compound 62] : 3.60

Let me check: O=C(C1CCOC1)N1CCC(N2CCN(C3CCN(C(=O)c4cc(C(F)(F)F)cc(C(F)(F)F)c4)C(Cc4ccc(Cl)c(Cl)c4)C3)CC2)C1 (stereo not shown) [Compound 172] , system NK3 (Homo sapiens, UniProt P29371), measured log10 of IC50 is 2.60

The observed log10 of IC50 for O=C(c1cc(CCOCc2ccccc2)cs1)N1CCC(N2CCN([C@H]3CCN(C(=O)c4cc(C(F)(F)F)cc(C(F)(F)F)c4)[C@H](Cc4ccccc4)C3)CC2)C1 (stereo partly shown) [Compound 362] when tested with NK3 (Homo sapiens, UniProt P29371) stands at 3.40

Sample COc1ccc(S(=O)(=O)N2CCC(N3CCN([C@H]4CCN(C(=O)c5cc(C(F)(F)F)cc(C(F)(F)F)c5)[C@H](Cc5ccccc5)C4)CC3)C2)cc1 (stereo partly shown) [Compound 280] , system: NK3 (Homo sapiens, UniProt P29371). Its log10 of IC50 is 3.60

Item O=C(CNc1ccccc1CO)N1CCC(N2CCN(C3CCN(C(=O)c4cc(C(F)(F)F)cc(C(F)(F)F)c4)C(Cc4ccccc4)C3)CC2)C1 (stereo not shown) [Compound 207] ; assay system NK3 (Homo sapiens, UniProt P29371); log10 of IC50 reported as 3.60

Entry CN(C(=O)C1CC1)C(C)(C)C(=O)N1CCC(N2CCN(C3CCN(C(=O)c4cc(C(F)(F)F)cc(C(F)(F)F)c4)C(Cc4ccccc4)C3)CC2)C1 (stereo not shown) [Compound 310] , tested on NK3 (Homo sapiens, UniProt P29371), has a reported log10 of IC50 of 3.60

// compound O=C(C1CCCCC1)N1CCC(N2CCN([C@H]3CCN(C(=O)c4cc(C(F)(F)F)cc(C(F)(F)F)c4)[C@H](Cc4ccccc4)C3)CC2)C1 (stereo partly shown) [Compound 178] , assay NK3 (Homo sapiens, UniProt P29371), log10 of IC50 value: 2.40

Tested system NK3 (Homo sapiens, UniProt P29371); log10 of IC50 recorded for O=C(c1sccc1CO)N1CCC(N2CCN([C@H]3CCN(C(=O)c4cc(C(F)(F)F)cc(C(F)(F)F)c4)[C@H](Cc4ccccc4)C3)CC2)C1 (stereo partly shown) [Compound 360] was 3.00

Bench note, NK3 (Homo sapiens, UniProt P29371): entry O=C(c1cc(C(F)(F)F)cc(C(F)(F)F)c1)N1CC[C@H](N2CCN([C@@H]3CCN(S(=O)(=O)c4cccs4)C3)CC2)C[C@H]1Cc1ccc(Cl)c(Cl)c1 [Compound 268] , its log10 of IC50 = 3.00

NK3 (Homo sapiens, UniProt P29371) log10 of IC50 of Cn1cnc(C(=O)N2CCC(N3CCN([C@H]4CCN(C(=O)c5cc(C(F)(F)F)cc(C(F)(F)F)c5)[C@H](Cc5ccccc5)C4)CC3)C2)c1 (stereo partly shown) [Compound 282] is 3.60

Readout log10 of IC50 for O=C(C(O)c1ccccc1Cl)N1CCC(N2CCN([C@H]3CCN(C(=O)c4cc(C(F)(F)F)cc(C(F)(F)F)c4)[C@H](Cc4ccccc4)C3)CC2)C1 (stereo partly shown) [Compound 334] , test system NK3 (Homo sapiens, UniProt P29371), was 3.90

Form field, log10 of IC50 with NK3 (Homo sapiens, UniProt P29371), item O=C(c1cc(C(F)(F)F)cc(C(F)(F)F)c1)N1CC[C@H](N2CCN(C3CCN(c4nc5ccccc5s4)C3)CC2)C[C@H]1Cc1ccccc1 (stereo partly shown) [Compound 7] : 2.50

# lookup: O=C(c1cc(C(F)(F)F)cc(C(F)(F)F)c1)N1CC[C@H](N2CCN(C3CCN(S(=O)(=O)c4cccc(O)c4)C3)CC2)C[C@H]1Cc1ccccc1 (stereo partly shown) [Compound 348] on NK3 (Homo sapiens, UniProt P29371), log10 of IC50 = 3.30

Entry N#Cc1ccc(NC(=O)N2CCC(N3CCN([C@H]4CCN(C(=O)c5cc(C(F)(F)F)cc(C(F)(F)F)c5)[C@H](Cc5ccccc5)C4)CC3)C2)cc1 (stereo partly shown) [Compound 283] : log10 of IC50 on NK3 (Homo sapiens, UniProt P29371) = 3.40

The compound O=C(c1ccoc1)N1CCC(N2CCN(C3CCN(C(=O)c4cc(C(F)(F)F)cc(C(F)(F)F)c4)C(Cc4ccccc4)C3)CC2)C1 (single isomer, unassigned) [Compound 32] on NK3 (Homo sapiens, UniProt P29371): log10 of IC50 was 2.30

Hey, NK3 (Homo sapiens, UniProt P29371) data for Cc1nnsc1C(=O)N1CCC(N2CCN(C3CCN(C(=O)c4cc(C(F)(F)F)cc(C(F)(F)F)c4)C(Cc4ccc(F)c(F)c4)C3)CC2)C1 (single isomer, unassigned) [Compound 253] : log10 of IC50 came out at 2.70

log10 of IC50 of N#CN=C(N1CCOCC1)N1CCC(N2CCN([C@H]3CCN(C(=O)c4cc(C(F)(F)F)cc(C(F)(F)F)c4)[C@H](Cc4ccccc4)C3)CC2)C1 (stereo partly shown) [Compound 371] , assay on NK3 (Homo sapiens, UniProt P29371), is 3.70

Record O=C1CCCN1CC(=O)N1CCC(N2CCN([C@H]3CCN(C(=O)c4cc(C(F)(F)F)cc(C(F)(F)F)c4)[C@H](Cc4ccccc4)C3)CC2)C1 (stereo partly shown) [Compound 214] has NK3 (Homo sapiens, UniProt P29371) log10 of IC50 equal to 3.60

# log10 of IC50 measured on NK3 (Homo sapiens, UniProt P29371) for item O=C(c1cc(C(F)(F)F)cc(C(F)(F)F)c1)N1CCC(N2CCN(C3CCN(c4ncccn4)C3)CC2)CC1Cc1ccccc1 (stereo not shown) [Compound 5] = 2.80

Considering O=C(c1cccs1)N1CC[C@H](N2CCN([C@H]3CCN(C(=O)c4cc(C(F)(F)F)cc(C(F)(F)F)c4)[C@H](Cc4ccc(Cl)c(Cl)c4)C3)CC2)C1 [Compound 318] , its log10 of IC50 with NK3 (Homo sapiens, UniProt P29371) was recorded as 2.60
